The origin of these recorded values is ChEMBL document CHEMBL4351018.

experiment: MRT (0 to t) in Sprague-Dawley rat at 10 mg/kg, po measured for 0.083 to 24 hrs by LC-MS/MS analysis; format: ADME, organism-based; conditions: in vivo
READOUT: MRT last (h)
State just the number; it will be interpreted in h.

[Q] What value of measured MRT last is listed for `COc1ccc(Cl)cc1S(=O)(=O)Nc1ccc2[nH]c(=O)c3ccccc3c2c1` ?
[A] 7.52

* * *

test: Metabolic stability in human liver microsomes assessed as half life at 1 uM measured for 0.025 to 2 hrs in presence of betaNADPH by LC-MS/MS analysis; type: ADME, Microsome
READOUT: half-life at 1 µM (h)
State just the number; it will be interpreted in h.

[Q] What value of measured half-life at 1 µM is listed for `COc1ccc(Cl)cc1S(=O)(=O)Nc1ccc2[nH]c(=O)c3ccccc3c2c1` ?
[A] 4.17

* * *

assay: Apparent clearance in Sprague-Dawley rat at 2.5 mg/kg, iv measured for 0.083 to 24 hrs by LC-MS/MS analysis; format: ADME, organism-based; conditions: in vivo, read-out: CL(app) (converted)
READOUT: clearance
Give your result as the value with the unit written after it.

[Q] What value of measured clearance is listed for `COc1ccc(Cl)cc1S(=O)(=O)Nc1ccc2[nH]c(=O)c3ccccc3c2c1` ?
[A] 85.8 mL/min/kg

* * *

assay: Cmax in Sprague-Dawley rat at 10 mg/kg, po measured for 0.083 to 24 hrs by LC-MS/MS analysis; assay type: ADME, organism-based; parameters: dose 10 mg/kg, route oral; conditions: in vivo
READOUT: Cmax (ng/mL)
State just the number; it will be interpreted in ng/mL.

[Q] What value of measured Cmax is listed for `COc1ccc(Cl)cc1S(=O)(=O)Nc1ccc2[nH]c(=O)c3ccccc3c2c1` ?
[A] 52.4

* * *

test system: SGC-7901; test: Antiproliferative activity against human SGC7901 cells incubated for 48 hrs by MTT assay; assay type: functional, cell-based; details: SGC-7901, 48 h
READOUT: IC50 (µM)
State just the number; it will be interpreted in µM.

[Q] What value of measured IC50 is listed for `COc1ccc(Cl)cc1S(=O)(=O)Nc1ccc2[nH]c(=O)c3ccccc3c2c1` ?
[A] 5.35

* * *

assay: AUC (0 to infinity) in Sprague-Dawley rat at 2.5 mg/kg, iv measured for 0.083 to 24 hrs by LC-MS/MS/MS analysis; type: ADME, organism-based; design: dose 2.5 mg/kg, time infinity, route intravenous; conditions: in vivo
READOUT: AUC(0-inf) (ng·h/mL)
State just the number; it will be interpreted in ng·h/mL.

[Q] What value of measured AUC(0-inf) is listed for `COc1ccc(Cl)cc1S(=O)(=O)Nc1ccc2[nH]c(=O)c3ccccc3c2c1` ?
[A] 505

* * *

assay: Cmax in Sprague-Dawley rat at 2.5 mg/kg, iv measured for 0.083 to 24 hrs by LC-MS/MS analysis; format: ADME, organism-based; design: dose 2.5 mg/kg, route intravenous; details: in vivo
READOUT: Cmax (ng/mL)
State just the number; it will be interpreted in ng/mL.

[Q] What value of measured Cmax is listed for `COc1ccc(Cl)cc1S(=O)(=O)Nc1ccc2[nH]c(=O)c3ccccc3c2c1` ?
[A] 96.9

* * *

experiment: Apparent clearance in Sprague-Dawley rat at 10 mg/kg, po measured for 0.083 to 24 hrs by LC-MS/MS analysis; assay type: ADME, organism-based; conditions: in vivo, read-out: CL(app) (converted)
READOUT: CL/F (mL/min/kg)
State just the number; it will be interpreted in mL/min/kg.

[Q] What value of measured CL/F is listed for `COc1ccc(Cl)cc1S(=O)(=O)Nc1ccc2[nH]c(=O)c3ccccc3c2c1` ?
[A] 303
